Assignment: determine reported nuclei count for the given compounds.
- experimental protocol: inhibitors of mutant huntingtin aggregation, primary screen, imaging, exon1htt(103Q)mCFP cells, high-content imaging (AID 483);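 further: compound exposure lasted 3 days before fixation; percent of the per-plate median nuclei count of sample wells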
- assay conditions: exon1htt(103Q)mCFP cell line, aggregate imaging, at 2 µM; measured here: cell count, toxicity
One number for each entry, in %.

// below: answered compounds
[[record]]
compound = "Cc1nc2ccccc2cc1O"
measure = "nuclei count"
units_symbol = "%"
measured_result = 80.3

[[record]]
compound = "COC(=O)C1=C(N)Oc2cc(C)[nH]c(=O)c2C1c1ccncc1 (stereo unspecified)"
measure = "nuclei count"
units_symbol = "%"
measured_result = 99.8

[[record]]
compound = "CN=c1sc2ccccc2n1CC(O)COCc1ccco1 (stereo unspecified)"
measure = "nuclei count"
units_symbol = "%"
measured_result = 98.5


I'm hoping you can list nuclei count for every compound here, please.
1. COCCc1ccc(OCC(O)CNC(C)C)cc1 (stereo unspecified)
2. O=C(OCCCN1CCCC1)C1(c2ccccc2)CCCC1
3. CC1CCc2cc(F)cc3c(O)c(C(=O)NCC4CCCO4)c(=O)n1c23 (stereo unspecified)
4. CC(C(=O)O)c1ccc(-c2ccccc2)c(F)c1 (stereo unspecified)
5. CCC(CC)C1C(C#N)=C(N)Oc2n[nH]c(C)c21 (stereo unspecified)
6. OCCN(CCO)c1nc(N2CCCCC2)c2nc(N(CCO)CCO)nc(N3CCCCC3)c2n1

[85.7, 80.3, 83.8, 101, 102, 110]

I'm hoping you can list nuclei count for every compound here, please.
1. CC(C)[N+](C)(CCOC(=O)C1c2ccccc2Oc2ccccc21)C(C)C
2. COc1ccc(C2/C(=C(/O)c3cnn(-c4ccccc4)c3C)C(=O)C(=O)N2CCN(C)C)cc1OC (stereo unspecified)

115
72.6

###

- experimental protocol: DUSP6 inhibitors restoring Erk phosphorylation by chemical complementation, primary imaging in DUSP6-transfected HeLa (AID 609)
- assay conditions: HeLa MKP-3 transfected, phospho-Erk imaging KS statistic; measured here: nuclear c-Myc green intensity z-score; at 10 µM; cells stimulated with TPA for 15 min
Assignment: determine reported z-score for the given compounds.
One number for each entry.

// below: answered compounds
[[record]]
compound = "O=C1NC(c2cccs2)Nc2ccccc21 (stereo unspecified)"
measured_result = -1.7

[[record]]
compound = "Cn1c(=O)c2c(nc(Oc3ccc4c(c3)OCO4)n2Cc2ccc(F)cc2)n(C)c1=O"
measured_result = -0.122

[[record]]
compound = "CC[N+](C)(C)c1cccc(O)c1"
measured_result = -0.0907

[[record]]
compound = "NS(=O)(=O)c1ccc(C(=O)O)cc1"
measured_result = -0.0127

[[record]]
compound = "CC(C)C1Cc2c(sc3c2c(=O)n(-c2ccccc2)c2nncn32)CO1 (stereo unspecified)"
measured_result = -0.884


Please indicate z-score recorded for CCN=C1SC(C(=O)Nc2ccc(Cl)c(Cl)c2)CC(=O)N1CC (stereo unspecified) -1.1

###

- experimental protocol: DUSP6 inhibitors restoring Erk phosphorylation by chemical complementation, primary imaging in DUSP6-transfected HeLa (AID 609)
- assay conditions: HeLa MKP-3 transfected, phospho-Erk imaging KS statistic; measured here: nuclear pErk red intensity z-score; at 10 µM; stronger effect = higher value; cells stimulated with TPA for 15 min
measure: z-score
Numbers only.

// below: answered molecules
[[record]]
molecule = "CCCc1[nH]n(-c2nc3ccccc3s2)c(=O)c1C=NCCN1CCOCC1"
measured_result = -1.01

[[record]]
molecule = "Cc1nn(C)cc1/C=N/O"
measured_result = -0.23

[[record]]
molecule = "O=C1NC(c2cccs2)Nc2ccccc21 (stereo unspecified)"
measured_result = 1.79


I'm hoping you can list z-score for every molecule here, please.
1. CCCSc1nc(C)c(CC(=O)OCC)c(=O)[nH]1
2. COCCNC(=O)c1c(N)n(CCC2=CCCCC2)c2nc3ccccc3nc12
3. CC(C)CNC(=O)c1c(N)n(/N=C/c2ccccn2)c2nc3ccccc3nc12
4. CCOC(=O)C(C#N)C(Cc1ccccc1)c1ccco1 (stereo unspecified)
5. Cc1cc(C)nc(NC2=NCC(=O)N2c2ccccc2)n1
6. Cc1ccc2cc(CN(C(=O)c3ccco3)c3ccccc3C)c(=O)[nH]c2c1
7. CCN1CCN(c2nc3c(C)cccn3c(=O)c2/C=C(\C#N)S(=O)(=O)c2ccc(C)cc2)CC1
8. CCOC(=O)c1[nH]c2cc3c(cc2c1NC(=O)CN1CCCCC1C)OCO3 (stereo unspecified)

1. 1.09
2. -0.195
3. -0.75
4. -0.042
5. -1.47
6. -0.15
7. 0.701
8. -0.403

###

- experimental protocol: DUSP6 inhibitors restoring Erk phosphorylation by chemical complementation, primary imaging in DUSP6-transfected HeLa (AID 609)
- assay conditions: HeLa MKP-3 transfected, phospho-Erk imaging KS statistic; measured here: cell density z-score; at 10 µM; cells stimulated with TPA for 15 min
The class of a record is decided solely by its measured z-score; consult lower level (below -0.5), middle level (-0.5 to below 0.6), upper level (0.6 or more)

Reference set (5 entries):
[[record]]
compound = "CCOc1cccc(-c2nnc3sc(-c4cc(OC)c(OC)c(OC)c4)nn23)c1"
label = "upper level"

[[record]]
compound = "COc1ccc(N/C(=N\\c2nc(C)cc(C)n2)NC(=O)C(C)C)cc1OC"
label = "middle level"

[[record]]
compound = "CCOC(=O)C1=C(C(C)=O)C(c2cccnc2)C(C#N)=C(N)O1 (stereo not drawn)"
label = "upper level"

[[record]]
compound = "CC(=O)O[C@]1(C(C)=O)CC[C@H]2[C@@H]3C[C@H](C)C4=CC(=O)CC[C@]4(C)[C@H]3CC[C@@]21C"
label = "upper level"

[[record]]
compound = "COCCN(CCOC)C(=O)C12CCC(C)(C(=O)C1)C2(C)C (stereo not drawn)"
label = "middle level"


Lab note: sort "CCCCCCC(=O)N1CCN(c2cc3c(cc2F)c(=O)c(C(=O)O)cn3CC)CC1" into the matching z-score band. lower level

Lab note: sort O=C(O)CCCCCCC1C(=O)NC(=O)N1CCC(O)C1CCCCC1 (stereo not drawn) into the matching z-score band. lower level

Lab note: sort "CCCCCC(=O)N1CC2(C)CN(C(=O)CCCCC)CC(C)(C1)C2=O" into the matching z-score band. upper level

Lab note: sort "Nc1nnc(-c2cccc(Cl)c2Cl)c(N)n1" into the matching z-score band. middle level

Lab note: sort "CNCCCN1c2ccccc2CCc2ccccc21" into the matching z-score band. lower level

###

- experimental protocol: inhibitors of Chlamydomonas gravitaxis, primary screen, whole organism, Chlamydomonas reinhardtii, WT vs cilia-less mutant, absorbance, 96-well (AID 463189);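 further: 0% = wild type cc124 cells in DMSO and 100% = ciliumless bld1 mutant cells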
- assay conditions: OD600 absorbance, 2 days, at 10 µM, stronger effect = higher value
measure: inhibition (%)
Numbers only, in %.

[[record]]
compound = "Cc1ccc2[nH]c3c(N4CCOCC4)ncnc3c2c1"
measure = "inhibition"
measured_result = -1.47

[[record]]
compound = "O=C1[C@@H]2[C@H](C(=O)N1O)[C@H]1C=C[C@@H]2C1"
measure = "inhibition"
measured_result = 2.48


I'm hoping you can list inhibition for every compound here, please.
1. Cc1cc(C)c(C#N)c(SCC(=O)N2CCN(Cc3ccccc3)CC2)n1
2. CCOC(=O)c1[nH]c2cc3c(cc2c1NC(=O)CN1CCC(C)CC1)OCO3
3. CC12CCC(C(=O)NCCCN3CCOCC3)(OC1=O)C2(C)C (stereo unspecified)
4. C1CNCCNCCNCCN1

1: 8.58; 2: -6.78; 3: -10.2; 4: 1.09

###

- experimental protocol: inhibitors of E-selectin induction by TNFa, primary screen, imaging, HUVEC, immunofluorescence, MLSMR starter and 10KST1 sets (AID 487);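 further: 100% = median nuclei count of all wells on the same plate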
- assay conditions: HUVEC TNFalpha-induced E-selectin immunofluorescence imaging, at 2 µM; measured here: cell number, toxicity
Assignment: determine reported nuclei count for the given molecules.
Answers are plain numbers, in %.

// below: answered molecules
[[record]]
molecule = "O=C(CN1C(=O)c2ccccc2C1=O)NCc1ccccn1"
measured_result = 171

[[record]]
molecule = "Nc1ccc(Cl)cc1/C(=N/O)c1ccccc1"
measured_result = 65.2

[[record]]
molecule = "C(=C\\c1ccccc1)/CN1CCN(C(c2ccccc2)c2ccccc2)CC1"
measured_result = 131

[[record]]
molecule = "C=CCn1c(=S)[nH]c2ccccc2c1=O"
measured_result = 130

[[record]]
molecule = "COc1ccc2c(c1)[nH]c1c(=O)n(CC3CCCO3)cnc12 (centres undefined)"
measured_result = 133

[[record]]
molecule = "C=CCOC(=O)C1=C(C)OC(N)=C(C#N)C1c1ccoc1 (centres undefined)"
measured_result = 166

[[record]]
molecule = "CCCCOC(=O)Nc1ccc(S(=O)(=O)Nc2nc(C)cc(C)n2)cc1"
measured_result = 128

[[record]]
molecule = "COc1ccc(Nc2nc(Nc3ccc(OC)cc3)nc(-n3[nH]c(=O)c(C)c3C)n2)cc1"
measured_result = 122

[[record]]
molecule = "N#CCCSc1nc(N2CCOCC2)c2c(c1C#N)CCCC2"
measured_result = 168

[[record]]
molecule = "Clc1ccc(-n2ncc3c(NCCCn4ccnc4)ncnc32)cc1"
measured_result = 129


I'm hoping you can list nuclei count for every molecule here, please.
1. CCOC(=O)c1ccc(N2CC(O)=C(c3nc4ccccc4c(=O)[nH]3)C2=N)cc1
2. CO[C@@]1(NC(=O)CSCC#N)C(=O)N2C(C(=O)O)=C(CSc3nnnn3C)CS[C@@H]21
3. CC(=N\O)/C(CN(C)C)=N/O
4. CCN(CC)CCNC(=O)c1ccc(NC(C)=O)cc1
5. Cn1c(OCc2ccco2)nc2c1c(=O)n(Cc1ccc(Cl)c(Cl)c1)c(=O)n2C
6. Nc1nc(N)c2nc(-c3ccccc3)c(N)nc2n1

1. 186
2. 143
3. 131
4. 104
5. 136
6. 133

I'm hoping you can list nuclei count for every molecule here, please.
1. CCOC(=O)c1ccc(-n2c(=O)[nH]c3ccccc3c2=O)cc1
2. O=C1C=C(NCCNc2c(F)c(F)c(CO)c(F)c2F)CCC1
3. Cc1ccc2[nH]c3c(c2c1)CN(C(=O)CN1CCCc2ccccc21)CC3
4. Cc1ccc(S(=O)(=O)N2CCC(N3CCCCCC3)CC2)cc1
5. CCNCc1cc2cc(C)ccc2[nH]c1=O
6. COC(=O)c1ccccc1NC(=O)CSc1nnc(-c2ccncc2)o1
7. CC(C)Cc1[nH]c(=O)c(C#N)c2c1CCCC2

[136, 105, 142, 163, 132, 128, 155]

Please indicate nuclei count recorded for "N#CCSc1nc2c(cc1C#N)CCCCCC2" 147
